- Tested on: Saccharomyces cerevisiae;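 note: PSI is a weighted mean of sequencing reads over stability bins, variants kept only with over 10 reads, mCherry proximal and sfGFP distal, peptide attached via GGGS linker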
- procedure.text: protein stability index of tFT-peptide fusion (C-terminal peptide) (PSI (0-1 scale)); higher = more stable (slower turnover)
- recorded.conditions: genetic background: wild type; temperature: 30 C
Listed sequences paired with reported protein stability index
// no unit string in output, number only

Here are 6 sequences together with their reported answers.
QCAPVFIAVCRL ... 0.681
QLILVGYCMLSV ... 0.561
PVLYSFSLWIHL ... 0.361
WWGAKLDGKVSE ... 0.813
ARKGVDFSRVIG ... 0.647
GLKWTGLEWHFL ... 0.693

**Query** Any idea what its protein stability index is? The sequence is HKVETHQIIQIK
**Result** 0.726

**Query** Could you share which protein stability index value was measured for HDMTGARKTHIA ?
**Result** 0.676

**Query** // lookup protein stability index for DPRVLPPPPRLP
**Result** 0.637

**Query** Look up protein stability index: FGSVFMSFFLCS
**Result** 0.522

**Query** Given the sequence KIERSKKKRRKG , what is its reported protein stability index?
**Result** 0.66

**Query** GET /values?readout=protein stability index&item= SFGGGLIGAGVT
**Result** 0.698

**Query** # query: protein stability index of entry RFRVKSYLYFCP
**Result** 0.614

**Query** Please report the recorded protein stability index for LPPHRPPAPDLS .
**Result** 0.674

**Query** Item LGSTPAVKPPCL has what recorded protein stability index?
**Result** 0.688

**Query** Sample VVCVGAEVGEGG — what was its protein stability index?
**Result** 0.72

**Query** Any idea what protein stability index was measured for LEWVRPCDLFPC ?
**Result** 0.72

**Query** Value lookup for protein stability index; key = EEMMEWKKREEK
**Result** 0.66

**Query** // lookup protein stability index for PPARATPHDRCP
**Result** 0.724

**Query** // query protein stability index value for entry SPPPPSPTCPHL
**Result** 0.652

**Query** Which measured protein stability index value corresponds to MRIKSMLHHSKV ?
**Result** 0.662

**Query** For the sequence shown here, VAYRGGGGWRIS , give the reported protein stability index.
**Result** 0.686

**Query** Field request: protein stability index | item: LHLPFLPSLPHP
**Result** 0.727

**Query** Find the recorded protein stability index belonging to KFWRCVVVGYGL and report it.
**Result** 0.641

**Query** Bench note: what protein stability index did MPHLARVREVVH show?
**Result** 0.618

**Query** Could you share which protein stability index value was measured for WQLKGNGGREAL ?
**Result** 0.671

**Query** Using the record for RRLFVMDKRKRK , report its protein stability index.
**Result** 0.716

**Query** I am curious: what protein stability index value has been reported for DLVSVVGRGIVL ?
**Result** 0.675

**Query** Requested field: protein stability index. Item: VARLCVPSGPGH
**Result** 0.721

**Query** # input sequence: LLPSPLLLYSLS ; wanted: its protein stability index
**Result** 0.451

**Query** I'd like to know its protein stability index. The sequence in question is RTKLFGIVGRQL
**Result** 0.659

**Query** # query: protein stability index of entry FSIFFFLLPSSL
**Result** 0.464

**Query** Give the measured protein stability index of STVGAWGRVGEG .
**Result** 0.459
